Source listed as a melting point compilation (Tetko et al.; mined from patent text by program, amines drawn as free bases though some values may be those of a salt).

Listing of entries alongside the reported melting point.

compound="CCC1Cc2cc(OC)c(Cl)c(Cl)c2C1=O (stereo not given)" property_label="melting point" result="146 to 147 °C"
compound=Nc1ncc(CN2CCN(c3ccc(Cl)cc3)CC2)c(N)n1 property_label="melting point" result="296 to 298 °C"
compound=CCCC[C@H]1[C@@H](O)CC[C@@]2(C)CC[C@@H]3C[C@]12OC3(C)C property_label="melting point" result="47 to 48 °C"
compound=Cn1nnc(-c2ccc3c(c2)S(=O)(=O)c2ccccc2C3=O)n1 property_label="melting point" result="204 to 205 °C"

// switching to the query compound
Measured melting point, OCc1ccc(-c2ccc3nnn(Cc4ccc5ncccc5c4)c3n2)cc1F : 202 to 204 °C
